Hello, the source for this data is ChEMBL document CHEMBL1759891, in case you need it.

Some molecules, each annotated with its measured pIC50.
Biological target: Beta-secretase 1 (Homo sapiens, UniProt P56817)
Sequence (P56817 whole entry): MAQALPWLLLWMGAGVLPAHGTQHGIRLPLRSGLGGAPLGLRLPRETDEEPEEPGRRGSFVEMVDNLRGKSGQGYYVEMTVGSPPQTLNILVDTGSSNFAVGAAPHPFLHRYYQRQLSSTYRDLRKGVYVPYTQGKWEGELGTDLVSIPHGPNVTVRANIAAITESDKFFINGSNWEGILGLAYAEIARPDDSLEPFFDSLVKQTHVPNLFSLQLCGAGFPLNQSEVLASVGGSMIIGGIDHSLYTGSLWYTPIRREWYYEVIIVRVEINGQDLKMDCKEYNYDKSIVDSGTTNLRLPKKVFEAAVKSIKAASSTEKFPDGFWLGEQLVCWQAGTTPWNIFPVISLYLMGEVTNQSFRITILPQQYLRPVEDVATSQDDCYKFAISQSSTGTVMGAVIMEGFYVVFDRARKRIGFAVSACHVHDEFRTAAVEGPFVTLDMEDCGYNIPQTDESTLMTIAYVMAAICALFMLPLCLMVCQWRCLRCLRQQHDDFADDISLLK
Test: Inhibition of human BACE-1
Answer as the number alone; pIC50 is minus log10 of concentration in mol/L.

• CC(C)Oc1cccc(CN[C@H]2CS(=O)(=O)C[C@@H](Cc3ccc(O)c(Br)c3)[C@@H]2O)c1 = 5.85
• CC(C)c1cccc(CN[C@H]2CS(=O)(=O)C[C@@H](Cc3ccc(O)c(CCO)c3)[C@@H]2O)c1 = 6.00
• CC(C)c1cccc(CN[C@H]2CS(=O)(=O)C[C@@H](Cc3ccc(O)c(CO)c3)[C@@H]2O)c1 = 5.92

We now examine a further molecule.
Ask: Fill in reported pIC50 for this entry: CC(C)c1cccc(CN[C@H]2CS(=O)(=O)C[C@@H](Cc3cccc(Br)c3)[C@@H]2O)c1 (racemic)
Result: 6.12
